Molecular target: Short transient receptor potential channel 6 (Mus musculus) (UniProt Q61143)
Sequence (Q61143 whole entry, looked up): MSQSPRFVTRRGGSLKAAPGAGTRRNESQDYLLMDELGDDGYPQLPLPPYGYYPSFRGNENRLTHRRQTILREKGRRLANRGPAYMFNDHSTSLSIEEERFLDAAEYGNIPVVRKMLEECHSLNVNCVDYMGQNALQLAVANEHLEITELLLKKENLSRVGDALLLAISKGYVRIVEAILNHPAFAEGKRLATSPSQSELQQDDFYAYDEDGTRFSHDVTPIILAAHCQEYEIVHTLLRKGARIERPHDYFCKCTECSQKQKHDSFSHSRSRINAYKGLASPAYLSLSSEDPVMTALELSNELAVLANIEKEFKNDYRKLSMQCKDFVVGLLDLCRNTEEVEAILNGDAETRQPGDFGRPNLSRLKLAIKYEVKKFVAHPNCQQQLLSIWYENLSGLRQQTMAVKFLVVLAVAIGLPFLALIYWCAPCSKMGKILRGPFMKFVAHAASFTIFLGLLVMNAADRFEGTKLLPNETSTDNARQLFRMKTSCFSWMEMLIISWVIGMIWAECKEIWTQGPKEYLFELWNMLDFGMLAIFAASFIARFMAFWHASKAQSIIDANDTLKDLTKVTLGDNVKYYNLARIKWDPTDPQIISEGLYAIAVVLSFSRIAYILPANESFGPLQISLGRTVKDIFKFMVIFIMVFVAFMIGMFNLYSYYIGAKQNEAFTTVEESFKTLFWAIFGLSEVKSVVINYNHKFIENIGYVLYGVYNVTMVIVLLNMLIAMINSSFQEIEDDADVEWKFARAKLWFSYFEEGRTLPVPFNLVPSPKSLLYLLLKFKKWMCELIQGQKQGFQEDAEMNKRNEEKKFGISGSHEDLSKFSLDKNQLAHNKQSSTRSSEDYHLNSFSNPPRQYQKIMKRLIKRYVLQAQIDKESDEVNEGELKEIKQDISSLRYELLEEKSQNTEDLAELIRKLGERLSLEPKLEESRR
Assay: TRPC6 inhibitor potency, dose response, cell-based, mouse TRPC6, HEK293, membrane potential (AID 2696)
Conditions: TRPC6-expressing HEK293 cells, membrane potential dye fluorescence, acetylcholine-stimulated
endpoint.label: IC50

*Q* Please look up its IC50: `CC(/C=N/n1c(-c2n[nH]c3c2CCC3)n[nH]c1=S)=C\c1ccco1`
*A* 8.91 µM

*Q* Continue with CCOC(=O)C1CCCN(C(=O)c2cc3c(C)nc4ccccc4c3o2)C1 (stereo not given)
*A* 50.1 µM

*Q* One more compound: S=C1N(c2ccccc2)C(c2ccc(Br)cc2)N2CCCN12 (stereo not given)
*A* 17.8 µM

*Q* # repeat for COC(=O)C(NC(=O)c1ccc(C)cc1)(Nc1cccc(C)n1)C(F)(F)F (stereo not given)
*A* 50.1 µM

*Q* Same question, CC1(C(O)(C#CC[N+]2(C)CCCCC2)c2ccccc2)CCCC1 (stereo not given) this time
*A* 0.14 µM

*Q* Further, for `CCCC[n+]1ccc(-c2nc3ccc([N+](=O)[O-])cc3[nH]2)cc1` ?
*A* 56.2 µM

*Q* OC(CCN1CCCC1)(c1ccccc1)C1CCCCC1 (stereo not given) ?
*A* 4.47 µM

*Q* Now consider `CCOc1cccc(=NC2CCCCC2)c2c(C)n(C)c(C)c12` .
*A* 50.1 µM

*Q* What do you have for `CCOC(=O)c1c(CNc2ccncc2)n(C)c2cc(Br)c(O)cc12` ?
*A* 44.7 µM

*Q* Try `Cc1cc(C)n(-c2nc(NCCCN(C)C)c3c4c(sc3n2)COC(C)(C)C4)n1` next.
*A* 14.1 µM

*Q* Entry CC(C)C(O)(C#CCN1CCCCC1)c1ccccc1 (stereo not given) please
*A* 11.2 µM

*Q* Further, for `CCOC(=O)c1cnc2c(C)cccc2c1NCCCN1CCOCC1` ?
*A* 44.7 µM

*Q* Same read-out for `COCCCNC(=S)N1CCCN(c2nc3cc(C)ccc3cc2C#N)CC1` ?
*A* 39.8 µM

*Q* Now give it for C[N+]1(C)[C@@H]2CC[C@H]1CC(OC(=O)[C@@H](CO)c1ccccc1)C2 (stereo not given in full) too.
*A* 0.02 µM

*Q* Here is the next compound: COc1ccc(C(=O)C2CCCN(Cc3cccn3-c3ccccn3)C2)cc1F (stereo not given)
*A* 79.4 µM

* * *

For each of the molecules below, state its IC50.
Molecular target: Short transient receptor potential channel 6 (Mus musculus) (UniProt Q61143)
Assay: TRPC6 inhibitor potency, dose response, cell-based, mouse TRPC6, HEK293, membrane potential (AID 2696)
Conditions: TRPC6-expressing HEK293 cells, membrane potential dye fluorescence, acetylcholine-stimulated

*Q* Field request: IC50 | item: `Cc1cccc(-c2nc(NCCCN(C)C)c3ccccc3n2)c1`
*A* 70.8 µM

*Q* Now consider `Clc1ccc2c(N3CCCC3)ccnc2c1` .
*A* 56.2 µM

*Q* Same thing, different molecule: O=C(NCC(=O)N(c1ccc2c(c1)OCCO2)C(C(=O)NC1CCCC1)c1ccco1)c1ccco1 (stereo unspecified)
*A* 44.7 µM

*Q* Next record, please: `N=c1c(C(=O)NCCN2CCOCC2)cc2c(=O)n3ccccc3nc2n1CCc1ccccc1`
*A* 50.1 µM

*Q* Consider next the molecule `CCCCn1c(-c2ccc([N+](=O)[O-])cc2)n[nH]c1=S` in the same way.
*A* 6.31 µM

*Q* One more molecule: CC1CCCN1CC#CC(O)(c1ccccc1)c1ccccc1 (stereo unspecified)
*A* 11.2 µM

*Q* Here is the next molecule: `Cc1cc(Nc2cccc([N+](=O)[O-])c2)c2cccc(C)c2n1`
*A* 44.7 µM

*Q* Now consider `C[N+]12CCC(CC1)C(=C(c1ccccc1)c1ccccc1)C2` .
*A* 4.47 µM

*Q* Now consider `CN1CCN(CCC(C#N)(c2ccccc2)c2ccccc2)CC1` .
*A* 39.8 µM

*Q* Moving on to `O=C(OCCN1CCCCC1)C1(c2ccccc2)CCCC1`
*A* 8.91 µM

*Q* Param item: `CCN(CC)CCOC(=O)C1(c2ccccc2)CCCC1`
*A* 15.8 µM

*Q* Next record, please: `Cc1cc(N(CCO)CCO)ccc1N=Nc1cc(F)ccc1F`
*A* 50.1 µM

*Q* Do the same for `O=C(c1ccc(C(=O)N2CCCc3ccccc32)s1)N1CCCc2ccccc21` please
*A* 44.7 µM

*Q* What do you get for `CCc1ccc(N=C2N=C(N)c3ccccc32)cc1` ?
*A* 50.1 µM

*Q* Similarly, `CN(CCOC(=O)C1c2ccccc2Oc2ccccc21)C(C)(C)C` ?
*A* 0.89 µM

*Q* Try Cc1cc(-n2cccn2)ccc1CN1CCN(C2CCCC2)C(CCO)C1 (stereo unspecified) next.
*A* 0.5 µM

*Q* Please give the result for `Cc1nnc(SCCn2c(N3CCN(C)CC3)nc3c2c(=O)[nH]c(=O)n3C)s1` too.
*A* 50.1 µM

*Q* // next record C[N+](C)(N)CCOC(=O)C(O)(c1ccccc1)C1CCCCC1 (stereo unspecified)
*A* 0.32 µM

*Q* What do you get for COc1ccccc1Nc1nc(NCC2CCCO2)c2ccccc2n1 (stereo unspecified) ?
*A* 79.4 µM

*Q* Similarly, CN1CCCC1CCNc1ccc2c(=O)c3ccccc3oc2c1 (stereo unspecified) ?
*A* 63.1 µM

*Q* Record: CC1CCN(Cc2ccc(NC(=O)CC3Oc4ccccc4NC3=O)cc2)CC1 (stereo unspecified)
*A* 2.24 µM

*Q* Subsequent entry: `CC(C)[N+](C)(C)CC#CC(O)(c1ccccc1)c1ccccc1`
*A* 2 µM

*Q* // same read-out, input: `C[N+]1(CC#CC(O)(c2ccccc2)c2ccccc2)CCCC1`
*A* 2.24 µM

*Q* Entry to check: `COc1cc(/C=N/Nc2nc(N3CCCC3)nc(N3CCCC3)n2)ccc1OCc1ccccc1F`
*A* 39.8 µM

*Q* Next molecule up: `CCN(CC)CCCNc1nc(-n2nc(C)cc2C)nc2sc3c(c12)CC(C)(C)OC3`
*A* 22.4 µM

*Q* Entry to check: `Nc1ccc(C(=O)OCc2nc3ccccc3s2)cc1`
*A* 79.4 µM

*Q* Similarly, `CCN(CC)CCCNc1nc(-c2ccccc2)nc2ccccc12` ?
*A* 79.4 µM

*Q* Item: Cc1c(C(=O)OC(C)CCN(C)C)oc2ccccc12 (stereo unspecified)
*A* 14.1 µM

*Q* Likewise for CCCCC(O)(CCN1CCOCC1)c1ccc(Cl)cc1 (stereo unspecified) ?
*A* 44.7 µM

*Q* And the next one, `O=C(OCCN1CCCC1)C1(c2ccccc2)CCCC1` ?
*A* 15.8 µM

*Q* Could you do the same for `N=c1sccn1CC(=O)Nc1cc(Cl)ccc1Oc1ccccc1` , please?
*A* 44.7 µM

*Q* Now give it for CC[N+](C)(CC)CCC(c1ccccc1)C1CCCCC1 (stereo unspecified) too.
*A* 4.47 µM

*Q* How about `CCOC(=O)c1cnc2c(Cl)cccc2c1NCCN(C)C` ?
*A* 63.1 µM

*Q* # repeat for `CCN(CC)CC#CC(O)(c1ccccc1)c1ccccc1`
*A* 8.91 µM

*Q* Repeat with C[N+]1(C)[C@@H]2CC(OC(=O)[C@H](CO)c3ccccc3)C[C@H]1[C@@H]1O[C@@H]12 (stereo partly specified)
*A* 0.03 µM

*Q* Now give it for CC(C)C(O)(C#CCN1CCCCCC1)c1ccccc1 (stereo unspecified) too.
*A* 44.7 µM

* * *

Target: Short transient receptor potential channel 6 (Mus musculus) (UniProt Q61143)
Assay: TRPC6 inhibitor potency, dose response, cell-based, mouse TRPC6, HEK293, membrane potential (AID 2696)
Conditions: TRPC6-expressing HEK293 cells, membrane potential dye fluorescence, acetylcholine-stimulated
endpoint.label: IC50

*Q* Find the recorded IC50 belonging to `CN1CCN(c2ncccc2S(=O)(=O)N2CCCCC2)CC1` and report it.
*A* 11.2 µM

*Q* Check COc1ccccc1Nc1nc(N)nc(CSC(=S)N2CCCCC2C)n1 (centres undefined) too.
*A* 44.7 µM

*Q* Param item: `O=[N+]([O-])c1cccc(OCCCN2CCC(Cc3ccccc3)CC2)c1`
*A* 50.1 µM

*Q* Consider next the compound `Cc1ccc(C)c(Nc2nc(N)c3ccccc3n2)c1` in the same way.
*A* 19.9 µM
